meta.source: paper PMC6257776

System: DU-145 human prostate cancer cells
assay comment: SRB cell growth inhibition assay, DU-145
Assay type: cell-based
reported conditions: DU-145 cells, 72 h exposure, read-out: Cytotoxicity IC50, DU-145
pIC50: −log10 of the molar value.
Each entry below lists one item and its recorded pIC50 value.

- molecule: "C=C1CC[C@@H]2C(C)(C)C[C@@H](OC(C)=O)C[C@@]2(C)[C@@H]1CC/C(C)=C/Cc1cc(OC(C)=O)ccc1OC(C)=O"
  censoring operator: "="
  pIC50: 4.20
- molecule: "C=C1CC[C@@H]2C(C)(C)C[C@@H](OC(C)=O)C[C@@]2(C)[C@@H]1CC/C(C)=C/CO"
  censoring operator: "<"
  pIC50: 4.00
- molecule: "C=C1CC[C@@H]2C(C)(C)C[C@@H](OC(C)=O)C[C@@]2(C)[C@@H]1CC/C(C)=C/Cc1cc(O)ccc1O"
  censoring operator: "="
  pIC50: 4.35
- molecule: "C=C1CC[C@@H]2C(C)(C)C[C@@H](O)C[C@@]2(C)[C@@H]1CC/C(C)=C/COC(C)=O"
  censoring operator: "<"
  pIC50: 4.00
- molecule: "C=C1CC[C@@H]2C(C)(C)C[C@@H](OC(C)=O)C[C@@]2(C)[C@@H]1CC/C(C)=C\\CO"
  censoring operator: "<"
  pIC50: 4.00
- molecule: "C=C1CC[C@@H]2C(C)(C)C[C@@H](O)C[C@@]2(C)[C@@H]1CC/C(C)=C/Cc1cc(O)ccc1O"
  censoring operator: "="
  pIC50: 4.43
- molecule: "C=C1CC[C@@H]2C(C)(C)C[C@@H](O)C[C@@]2(C)[C@@H]1CC/C(C)=C\\CO"
  censoring operator: "="
  pIC50: 4.02
- molecule: "C=C1CCC2C(C)(C)CC(O)CC2(C)C1CCC(C)=CCc1c(OC)cc(OC)cc1OC (stereo not drawn)"
  censoring operator: "<"
  pIC50: 4.00
- molecule: "C=C1CC[C@@H]2C(C)(C)C[C@@H](O)C[C@@]2(C)[C@@H]1CC/C(C)=C/CO"
  censoring operator: "<"
  pIC50: 4.00

###

Below: a set of entries, each annotated with reported IC50.
System: MCF-7 breast carcinoma cells
assay comment: SRB cell growth inhibition assay, MCF-7
Format: cell-based, human
reported conditions: Homo sapiens, MCF7; MCF-7 cells, 72 h exposure, SRB; read-out: Cytotoxicity IC50, MCF-7
Experimental: The antitumor cytotoxicity of the compounds was evaluated in vitro against […] different cancer cell lines: PC-3 and DU-145 human prostate cancer, MCF-7 and MDA-MB-231 breast carcinoma and one non-tumoral cell line, dermal human fibroblasts (DHF). […] Four serial dilutions (from 12.5 to 100 µM) for each sample were evaluated in triplicate. […]
readout name: IC50 (µM)

- given smiles: "C=C1CC[C@@H]2C(C)(C)C[C@@H](O)C[C@@]2(C)[C@@H]1CC/C(C)=C\\CO"
  censoring operator: "="
  number: 74.9
- given smiles: "C=C1CC[C@@H]2C(C)(C)C[C@@H](O)C[C@@]2(C)[C@@H]1CC/C(C)=C/Cc1cc(O)ccc1O"
  censoring operator: "="
  number: 34
- given smiles: "C=C1CC[C@@H]2C(C)(C)C[C@@H](OC(C)=O)C[C@@]2(C)[C@@H]1CC/C(C)=C/CO"
  censoring operator: ">"
  number: 100
- given smiles: "C=C1CC[C@@H]2C(C)(C)C[C@@H](OC(C)=O)C[C@@]2(C)[C@@H]1CC/C(C)=C/Cc1cc(O)ccc1O"
  censoring operator: "="
  number: 23.9
- given smiles: "C=C1CC[C@@H]2C(C)(C)C[C@@H](OC(C)=O)C[C@@]2(C)[C@@H]1CC/C(C)=C\\CO"
  censoring operator: ">"
  number: 100

###

Test system: MCF-7 breast carcinoma cells
assay comment: SRB cell growth inhibition assay, MCF-7
Assay type: cell-based, human
reported conditions: Homo sapiens, MCF7; MCF-7 cells, 72 h exposure, SRB; read-out: Cytotoxicity IC50, MCF-7
Listing of recorded IC50 by entry.

- compound: "C=C1CC[C@@H]2C(C)(C)C[C@@H](O)C[C@@]2(C)[C@@H]1CC/C(C)=C/COC(C)=O"
  measurement units: "µM"
  IC50: 86.9
- compound: "C=C1CCC2C(C)(C)CC(O)CC2(C)C1CCC(C)=CCc1c(OC)cc(OC)cc1OC (stereo not shown)"
  measurement units: "µM"
  IC50: 45.6
- compound: "C=C1CC[C@@H]2C(C)(C)C[C@@H](OC(C)=O)C[C@@]2(C)[C@@H]1CC/C(C)=C/Cc1cc(OC(C)=O)ccc1OC(C)=O"
  measurement units: "µM"
  IC50: 41.1
- compound: "C=C1CC[C@@H]2C(C)(C)C[C@@H](O)C[C@@]2(C)[C@@H]1CC/C(C)=C/CO"
  measurement units: "µM"
  IC50: 90.6
